- TEST_SYSTEM: DNA dC->dU-editing enzyme APOBEC-3G (Homo sapiens, UniProt Q9HC16);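 further: Dose-response counterscreen measuring inhibition of APOBEC3G DNA deaminase activity, run while confirming APOBEC3A inhibitors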
- Sequence (Q9HC16 whole entry): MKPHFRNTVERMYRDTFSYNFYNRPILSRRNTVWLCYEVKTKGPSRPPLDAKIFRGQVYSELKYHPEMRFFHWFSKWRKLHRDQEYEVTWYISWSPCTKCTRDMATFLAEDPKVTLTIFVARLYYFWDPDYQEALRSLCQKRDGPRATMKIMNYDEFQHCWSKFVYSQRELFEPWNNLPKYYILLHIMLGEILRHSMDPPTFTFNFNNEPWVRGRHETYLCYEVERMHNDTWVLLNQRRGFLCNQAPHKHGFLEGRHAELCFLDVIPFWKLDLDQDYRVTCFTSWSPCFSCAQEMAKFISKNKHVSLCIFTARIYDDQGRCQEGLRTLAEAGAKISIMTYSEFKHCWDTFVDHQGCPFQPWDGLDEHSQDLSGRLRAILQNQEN
- Format: functional
Activity calls are given as the source filed them.
# reported IC50; entries follow
MEASURED_ENDPOINT: IC50

MOLECULE	TEST_SYSTEM	EXPERIMENTAL_RESULT
CN1CCC(N(C)S(=O)(=O)c2ccc(NC(=O)c3ccc(S(=O)(=O)N(C)C)cc3)cc2)CC1	DNA dC->dU-editing enzyme APOBEC-3G (Homo sapiens, UniProt Q9HC16)	16 µM (active)
COc1ccc(C(=O)OCC[N+]2(C)CCOCC2)cc1	DNA dC->dU-editing enzyme APOBEC-3G (Homo sapiens, UniProt Q9HC16)	3.47 µM (active)
Nc1ccc(Nc2ccccc2)c(S(=O)(=O)O)c1	DNA dC->dU-editing enzyme APOBEC-3G (Homo sapiens, UniProt Q9HC16)	34.1 µM (active)
CC[N+](C)(CC)CC(=O)OCC1C(C)C=C(C)CC1C (stereo not given)	DNA dC->dU-editing enzyme APOBEC-3G (Homo sapiens, UniProt Q9HC16)	2.04 µM (active)
COc1cc(Nc2cccc[n+]2C)cc(OC)c1OC	DNA dC->dU-editing enzyme APOBEC-3G (Homo sapiens, UniProt Q9HC16)	2.85 µM (active)
CC[C@]12C=CCN3CCC4(c5cc(Br)c(OC)cc5N(C)C4[C@@](O)(C(=O)OC)[C@@H]1OC(C)=O)C32 (stereo not given in full)	DNA dC->dU-editing enzyme APOBEC-3G (Homo sapiens, UniProt Q9HC16)	1.81 µM (active)
Cc1cccc(C)c1OCC(=O)NCc1nnc(SCC(=O)NC2CCCCC2C)n1C (stereo not given)	DNA dC->dU-editing enzyme APOBEC-3G (Homo sapiens, UniProt Q9HC16)	6.2 µM (active)
CCN1C(NCCCCO)=N[C@@H](c2cccc(C(F)(F)F)c2)C(C(=O)OC)=C1C	DNA dC->dU-editing enzyme APOBEC-3G (Homo sapiens, UniProt Q9HC16)	2.44 µM (active)
CCN(CC)CCNC(=O)c1ccc(NC(=O)C2CC(=O)N(c3ccc4c(c3)OCCO4)C2)cc1 (stereo not given)	DNA dC->dU-editing enzyme APOBEC-3G (Homo sapiens, UniProt Q9HC16)	8.16 µM (active)
O=C(NCCOc1ccccc1)c1nc[nH]n1	DNA dC->dU-editing enzyme APOBEC-3G (Homo sapiens, UniProt Q9HC16)	18.7 µM (active)

* * *

- TEST_SYSTEM: SUMO-activating enzyme (Homo sapiens)
- Sequence (Q9UBE0 whole entry): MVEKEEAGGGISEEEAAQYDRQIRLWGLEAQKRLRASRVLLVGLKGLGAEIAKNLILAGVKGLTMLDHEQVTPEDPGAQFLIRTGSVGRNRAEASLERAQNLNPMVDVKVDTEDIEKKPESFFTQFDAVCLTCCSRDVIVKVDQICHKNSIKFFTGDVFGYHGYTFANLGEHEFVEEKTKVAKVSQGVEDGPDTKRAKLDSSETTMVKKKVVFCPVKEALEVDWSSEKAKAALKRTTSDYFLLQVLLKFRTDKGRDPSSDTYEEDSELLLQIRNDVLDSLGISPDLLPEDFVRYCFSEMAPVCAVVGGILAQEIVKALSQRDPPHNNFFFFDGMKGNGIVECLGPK
- Sequence (Q9UBT2 whole entry): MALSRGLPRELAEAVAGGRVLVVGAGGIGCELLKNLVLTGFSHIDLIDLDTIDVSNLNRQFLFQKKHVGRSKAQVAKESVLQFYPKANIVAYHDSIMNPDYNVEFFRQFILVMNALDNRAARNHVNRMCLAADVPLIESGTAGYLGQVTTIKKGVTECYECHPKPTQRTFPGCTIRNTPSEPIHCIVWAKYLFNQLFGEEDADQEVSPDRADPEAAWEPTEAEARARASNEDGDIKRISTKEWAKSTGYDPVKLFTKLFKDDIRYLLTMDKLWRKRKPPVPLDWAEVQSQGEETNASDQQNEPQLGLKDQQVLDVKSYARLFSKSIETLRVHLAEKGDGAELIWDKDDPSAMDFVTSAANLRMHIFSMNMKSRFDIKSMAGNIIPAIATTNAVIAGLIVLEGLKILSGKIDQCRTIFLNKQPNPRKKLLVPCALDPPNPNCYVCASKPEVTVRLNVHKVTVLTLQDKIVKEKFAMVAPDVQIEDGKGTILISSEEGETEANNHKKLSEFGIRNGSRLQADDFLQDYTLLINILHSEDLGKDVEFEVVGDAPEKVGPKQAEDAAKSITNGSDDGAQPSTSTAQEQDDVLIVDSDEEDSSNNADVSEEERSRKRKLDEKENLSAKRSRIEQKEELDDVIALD
- ASSAY_OVERVIEW: blockers of UBC9-mediated SUMO conjugation – biochemical, AlphaScreen, SUMOylation inhibitor project, confirmation (AID 2018)
- Format: functional
The source made the active and inactive calls. Rule as the data show it: actives have a measured IC50 and inactives only a lower limit.
Labels: y for active, n for inactive

MOLECULAR_STRING	TEST_SYSTEM	ASSIGNED_LABEL
CN(C)c1cc(N/N=C\c2ccccc2)nc(N(C)C)n1	SUMO-activating enzyme (Homo sapiens)	y
O=C1N(c2ccc(Cl)c(Cl)c2)CN(Cc2ccccc2)CN1n1cnnc1	SUMO-activating enzyme (Homo sapiens)	n
Oc1nc(Nc2ccc(F)cc2)cc2ccccc12	SUMO-activating enzyme (Homo sapiens)	y
COc1cc(/C=C(\C#N)C(=O)Nc2cccc(C(=O)O)c2)ccc1OCc1ccc(Cl)cc1	SUMO-activating enzyme (Homo sapiens)	y
Cc1cc(/C=N/Nc2ccc([N+](=O)[O-])cn2)c(C)n1-c1ccc(C(=O)O)cc1	SUMO-activating enzyme (Homo sapiens)	y
Nc1ccc2nc(-c3ccc(-c4nc5ccc(N)cc5[nH]4)cc3)[nH]c2c1	SUMO-activating enzyme (Homo sapiens)	n
